Item-by-item account of IC50
Target: p110δ/p85α (Homo sapiens (Human))
Sequence (O00329 whole entry, one chain of several): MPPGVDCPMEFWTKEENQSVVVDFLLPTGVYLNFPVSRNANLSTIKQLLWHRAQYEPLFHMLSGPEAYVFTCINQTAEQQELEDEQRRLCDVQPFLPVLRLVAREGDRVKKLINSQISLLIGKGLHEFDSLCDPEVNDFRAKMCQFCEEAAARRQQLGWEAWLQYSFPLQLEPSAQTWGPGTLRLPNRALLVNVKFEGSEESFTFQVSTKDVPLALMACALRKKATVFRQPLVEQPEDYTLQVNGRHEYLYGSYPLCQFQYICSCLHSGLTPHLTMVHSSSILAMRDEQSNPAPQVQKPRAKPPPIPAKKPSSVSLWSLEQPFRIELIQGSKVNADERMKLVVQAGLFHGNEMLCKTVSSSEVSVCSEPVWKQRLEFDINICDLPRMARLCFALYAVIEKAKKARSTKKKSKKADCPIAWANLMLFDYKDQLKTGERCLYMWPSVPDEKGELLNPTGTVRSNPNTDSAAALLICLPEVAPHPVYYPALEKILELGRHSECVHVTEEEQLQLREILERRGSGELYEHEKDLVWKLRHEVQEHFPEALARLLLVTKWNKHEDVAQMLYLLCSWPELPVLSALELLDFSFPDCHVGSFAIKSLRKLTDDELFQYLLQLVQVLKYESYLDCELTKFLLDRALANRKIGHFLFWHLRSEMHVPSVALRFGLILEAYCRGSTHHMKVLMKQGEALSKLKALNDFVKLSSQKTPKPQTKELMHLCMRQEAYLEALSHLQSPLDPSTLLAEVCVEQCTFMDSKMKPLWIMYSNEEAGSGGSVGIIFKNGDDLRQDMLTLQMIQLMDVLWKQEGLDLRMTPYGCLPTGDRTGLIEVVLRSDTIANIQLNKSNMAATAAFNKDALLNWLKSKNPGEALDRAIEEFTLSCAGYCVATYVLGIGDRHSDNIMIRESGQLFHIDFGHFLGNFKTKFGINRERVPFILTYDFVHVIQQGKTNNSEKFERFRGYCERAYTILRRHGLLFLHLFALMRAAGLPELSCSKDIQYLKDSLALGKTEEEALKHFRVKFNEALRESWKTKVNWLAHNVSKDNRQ
Assay: PI 3-Kinase (human) HTRF assay, p110δ/p85α
Assay type: biochemical
Conditions: read-out: PI3K δ IC50

Answered cases to consult:
>  <molecule>
Nc1nc2cc(-c3ccc4ncc(N5CCN(CC6CC6)CC5)nc4c3)ccc2o1 [compound 153]

>  <IC50>
< 1000 nM

$$$$
>  <molecule>
CN(C)C1CCN(c2cnc3ccc(-c4ccc5oc(N)nc5c4)cc3n2)CC1 [compound 172]

>  <IC50>
< 100 nM

$$$$
>  <molecule>
Nc1nc2cc(-c3ccc4ncc(C(=O)N5CCN(CC6CC6)CC5)n4c3)ccc2o1 [compound 161]

>  <IC50>
< 10000 nM

$$$$

Given item Cn1cc(-c2cnc3ccc(-c4ccc5oc(N)nc5c4)cn23)cn1 [compound 41] , the value recorded as its IC50 is < 1000 nM

---

Molecular target: p110α/p85α (Homo sapiens (Human), UniProt P42336)
Sequence (P42336 whole entry): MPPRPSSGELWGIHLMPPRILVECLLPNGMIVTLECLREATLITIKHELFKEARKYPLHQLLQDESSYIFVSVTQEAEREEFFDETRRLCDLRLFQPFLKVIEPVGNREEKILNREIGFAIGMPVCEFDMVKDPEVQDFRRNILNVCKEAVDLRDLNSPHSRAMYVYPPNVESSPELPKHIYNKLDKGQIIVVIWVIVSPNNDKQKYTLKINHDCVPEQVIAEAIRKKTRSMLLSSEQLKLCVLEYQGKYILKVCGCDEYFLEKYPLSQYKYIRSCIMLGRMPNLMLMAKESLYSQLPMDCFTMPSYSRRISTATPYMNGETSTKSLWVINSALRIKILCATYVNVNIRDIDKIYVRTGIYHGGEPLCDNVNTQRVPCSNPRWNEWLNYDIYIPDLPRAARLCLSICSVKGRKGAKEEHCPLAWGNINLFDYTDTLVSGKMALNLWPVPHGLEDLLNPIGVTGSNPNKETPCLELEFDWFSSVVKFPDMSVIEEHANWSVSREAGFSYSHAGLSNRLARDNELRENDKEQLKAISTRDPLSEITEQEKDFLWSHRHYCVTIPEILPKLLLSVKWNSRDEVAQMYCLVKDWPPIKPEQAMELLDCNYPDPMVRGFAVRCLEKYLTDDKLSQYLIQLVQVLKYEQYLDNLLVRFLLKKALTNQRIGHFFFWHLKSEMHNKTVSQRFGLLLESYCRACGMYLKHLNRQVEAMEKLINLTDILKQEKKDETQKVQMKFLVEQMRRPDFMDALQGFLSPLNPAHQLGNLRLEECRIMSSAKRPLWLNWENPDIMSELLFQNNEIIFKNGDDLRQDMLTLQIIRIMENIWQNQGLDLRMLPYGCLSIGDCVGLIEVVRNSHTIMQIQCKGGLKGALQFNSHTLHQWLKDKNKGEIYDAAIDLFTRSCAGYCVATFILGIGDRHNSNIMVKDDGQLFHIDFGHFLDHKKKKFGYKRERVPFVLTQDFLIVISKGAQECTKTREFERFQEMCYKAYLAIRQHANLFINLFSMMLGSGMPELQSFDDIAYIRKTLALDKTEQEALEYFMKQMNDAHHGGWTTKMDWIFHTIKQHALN
Sequence (P27986 whole entry partner): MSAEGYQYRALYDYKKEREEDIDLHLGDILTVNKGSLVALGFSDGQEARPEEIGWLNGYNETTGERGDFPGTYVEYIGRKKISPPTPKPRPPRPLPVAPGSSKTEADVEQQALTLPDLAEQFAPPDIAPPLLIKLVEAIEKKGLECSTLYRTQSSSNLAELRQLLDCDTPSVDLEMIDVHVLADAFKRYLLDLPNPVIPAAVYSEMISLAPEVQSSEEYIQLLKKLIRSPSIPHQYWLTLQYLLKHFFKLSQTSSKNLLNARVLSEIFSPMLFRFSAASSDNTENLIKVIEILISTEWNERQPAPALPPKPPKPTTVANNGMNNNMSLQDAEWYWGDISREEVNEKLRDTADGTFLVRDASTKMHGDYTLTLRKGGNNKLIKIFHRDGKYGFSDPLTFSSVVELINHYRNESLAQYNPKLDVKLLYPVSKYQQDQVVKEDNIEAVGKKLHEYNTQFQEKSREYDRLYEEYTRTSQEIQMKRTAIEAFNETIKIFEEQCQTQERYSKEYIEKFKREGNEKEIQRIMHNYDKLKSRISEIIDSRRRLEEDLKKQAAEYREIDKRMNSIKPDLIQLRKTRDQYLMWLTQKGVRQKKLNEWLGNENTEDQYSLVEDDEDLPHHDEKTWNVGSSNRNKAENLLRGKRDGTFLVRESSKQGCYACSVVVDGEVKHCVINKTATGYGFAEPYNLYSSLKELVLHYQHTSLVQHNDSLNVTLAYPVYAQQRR
Experiment: PI 3-Kinase (human) HTRF assay, p110α/p85α
Assay type: biochemical
Conditions: in vitro; read-out: PI3K α IC50
metric-name: IC50

>  <molecule>
Nc1nc2cc(-c3ccc4ncc(N5CCN(C(=O)[C@H](N)CO)CC5)nc4c3)ccc2o1 [compound 299]

>  <test-value>
< 100 nM

$$$$

Given item CCN(CC)CCn1cnc2ccc(-c3ccc4oc(N)nc4c3)cc2c1=O [compound 224] , the value recorded as its IC50 is < 10000 nM

Given item Nc1nc2ccc(-c3ccc4sc(N)nc4c3)cc2o1 [compound 249] , the value recorded as its IC50 is < 100 nM

Given item CS(=O)(=O)N1CCN(C2CCN(c3cnc4ccc(-c5ccc6oc(N)nc6c5)cc4n3)CC2)CC1 [compound 377] , the value recorded as its IC50 is < 100 nM

Given item CN1CCN([C@@H]2CCN(c3cnc4ccc(-c5ccc6oc(N)nc6c5)cc4n3)C2)CC1 [compound 379] , the value recorded as its IC50 is < 100 nM

Given item Cc1cn(C2CCN(c3cnc4ccc(-c5ccc6oc(N)nc6c5)cc4n3)CC2)cn1 [compound 338] , the value recorded as its IC50 is < 100 nM

Given item Cc1ccn(C2CCN(C(=O)c3cnc4ccc(-c5ccc6oc(N)nc6c5)cn34)CC2)n1 [compound 297] , the value recorded as its IC50 is < 1000 nM

Given item Nc1nc2cc(-c3ccc4ncc(C(=O)N5CCN(C6CC6)CC5)n4c3)ccc2o1 [compound 263] , the value recorded as its IC50 is < 100 nM

---

Target: p110α/p85α (Homo sapiens (Human), UniProt P42336)
Test: PI 3-Kinase (human) HTRF assay, p110α/p85α
Type: biochemical
Conditions: in vitro; read-out: PI3K α IC50
Item-by-item account of IC50

>  <compound>
CN1CCN(CCn2cnc3ccc(-c4ccc5oc(N)nc5c4)cc3c2=O)CC1 [compound 280]

>  <metric-name>
IC50

>  <test-value>
< 10 µM

$$$$
>  <compound>
Nc1nc2cc(-c3ccc4ncc(C(=O)N(CCO)CCO)n4c3)ccc2o1 [compound 316]

>  <metric-name>
IC50

>  <test-value>
< 1 µM

$$$$
>  <compound>
CN(C)[C@@H]1CCN(c2cnc3ccc(-c4ccc5oc(N)nc5c4)cc3n2)C1 [compound 378]

>  <metric-name>
IC50

>  <test-value>
< 0.1 µM

$$$$
>  <compound>
Nc1nc2cc(-c3ccc4ncc(N5CCN(CC6CC6)CC5=O)nc4c3)ccc2o1 [compound 393]

>  <metric-name>
IC50

>  <test-value>
< 10 µM

$$$$

Given item Nc1nc2cc(-c3ccc4ncc(N5CC(N6CCOCC6)C5)nc4c3)cc(Cl)c2o1 [compound 358] , the value recorded as its IC50 is < 0.1 µM

Given item Nc1nc2cc(-c3ccc4ncc(C(=O)NCCN5CCCC5)n4c3)ccc2o1 [compound 296] , the value recorded as its IC50 is < 1 µM

Source of measurements: patent US11547697B2
